Assay: Investigation on solvent for crystallization: whether Compound A is dissolved in a solvent
Type: physicochemical
Details: organic solvent or mixture, thermodynamic from solid; solvent trichloroethylene; 3 ml solvent to 50 mg; read-out: Solubility (*1)
Experimental: (1) By adding 3 ml of a solvent to 50 mg of Compound A, it was investigated whether Compound A is dissolved or not. The results of the (1) described above are shown in the column of *1 of Table 2 and the results of the (2) described above are shown in the column of *2 of Table 2.
observation type: solubility

Which measured solubility value corresponds to Cc1oc(=O)oc1CN1CCN(c2cc3c(cc2F)c(=O)c(C(=O)O)c2n3C(C)S2)CC1 (stereo not shown) ?
≤ 16.7 mg/mL

FYI, the data here is from patent US7612205B2.
